// reported remaining activity at 0.0005 % for each item listed
# experimental.system: Renilla luciferase (Renilla reniformis)
# Sequence (P27652 1-311): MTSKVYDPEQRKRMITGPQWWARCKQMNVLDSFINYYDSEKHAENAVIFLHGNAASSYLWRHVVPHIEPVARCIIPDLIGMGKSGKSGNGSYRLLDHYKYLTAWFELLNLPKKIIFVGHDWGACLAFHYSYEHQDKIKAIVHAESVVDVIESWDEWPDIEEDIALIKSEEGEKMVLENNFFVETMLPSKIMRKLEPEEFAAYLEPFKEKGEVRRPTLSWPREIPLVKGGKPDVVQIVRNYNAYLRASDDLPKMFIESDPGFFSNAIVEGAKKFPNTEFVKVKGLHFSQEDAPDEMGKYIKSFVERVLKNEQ
# assay.comment: Detergent titration with Tergitol NP-9, digitonin or no lysing agent, Renilla luciferase (Example 4)
# Format: biochemical
# measurement.conditions: 0.0005% detergent; Dig; read-out: Relative Renilla Luc Intensity
In your response, put the unit directly after the numeric value.

Example cases with answers are listed next.
INSERT INTO assay_data (compound, assay_readout, value_observed) VALUES
  ('CCCCCCCCCCCCCCCC[N+](C)(C)C.[Cl-] [Cetyltrimethylammonium chloride]', 'remaining activity at 0.0005 %', '14%'),
  ('Cc1cc(C)c(C[N+](C)(C)C)cc1C.[Br-]', 'remaining activity at 0.0005 %', '63%'),
  ('CCCCCCCCCCCC[N+](C)(C)C.[Br-] [Dodecyltrimethylammonium bromide]', 'remaining activity at 0.0005 %', '96%');

State its remaining activity at 0.0005 % for this compound: CCCCCCCCCCCC[N+](C)(C)Cc1ccccc1.[Br-] [Benzyldimethyldodecylammonium bromide]
61%

State its remaining activity at 0.0005 % for this compound: CCCCC[N+](CCCCC)(CCCCC)CCCCC.[Br-] [Tetrapentylammonium bromide]
99%

State its remaining activity at 0.0005 % for this compound: CCCCCCCCCCCCCC[N+](C)(C)Cc1ccccc1.[Br-] [Benzyldimethyltetradecylammonium bromide]
14%

* * *

# experimental.system: Renilla luciferase (Renilla reniformis)
# Sequence (P27652 1-311): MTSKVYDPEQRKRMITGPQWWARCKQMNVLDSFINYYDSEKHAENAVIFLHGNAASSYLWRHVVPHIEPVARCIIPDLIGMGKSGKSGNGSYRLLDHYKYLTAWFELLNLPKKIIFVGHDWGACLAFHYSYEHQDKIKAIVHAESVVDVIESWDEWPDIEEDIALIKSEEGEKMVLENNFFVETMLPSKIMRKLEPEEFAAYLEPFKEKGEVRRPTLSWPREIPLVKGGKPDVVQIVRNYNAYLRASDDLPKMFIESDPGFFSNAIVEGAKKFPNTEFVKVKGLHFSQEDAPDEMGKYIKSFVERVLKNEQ
# assay.comment: Detergent titration with Tergitol NP-9, digitonin or no lysing agent, Renilla luciferase (Example 4)
# Type: biochemical
# measurement.conditions: 0.0050% detergent; Terg; read-out: Relative Renilla Luc Intensity
// reported remaining activity at 0.005 % for each item listed
Answer in %, number only, no unit symbol.

Example cases with answers are listed next.
INSERT INTO results (molecule, experimental_system, assay_readout, value_observed) VALUES
  ('CCCCCCCCCCCCCC[N+](C)(C)Cc1ccccc1.[Br-] [Benzyldimethyltetradecylammonium bromide]', 'Renilla luciferase (Renilla reniformis)', 'remaining activity at 0.005 %', 70),
  ('CCCCC[N+](CCCCC)(CCCCC)CCCCC.[Br-] [Tetrapentylammonium bromide]', 'Renilla luciferase (Renilla reniformis)', 'remaining activity at 0.005 %', 81),
  ('Cc1cc(C)c(C[N+](C)(C)C)cc1C.[Br-]', 'Renilla luciferase (Renilla reniformis)', 'remaining activity at 0.005 %', 67),
  ('CCCCCCCCCCCC[N+](C)(C)Cc1ccccc1.[Br-] [Benzyldimethyldodecylammonium bromide]', 'Renilla luciferase (Renilla reniformis)', 'remaining activity at 0.005 %', 58),
  ('CCCCCCCCCCCC[N+](C)(C)C.[Br-] [Dodecyltrimethylammonium bromide]', 'Renilla luciferase (Renilla reniformis)', 'remaining activity at 0.005 %', 76);

Turning now to a further molecule:
State its remaining activity at 0.005 % for this molecule: CCCCCCCCCCCCCCCC[N+](C)(C)C.[Cl-] [Cetyltrimethylammonium chloride]
71
